target: T1, ubiquitin mutein 77404; assay: SPR; point mutant Y8Q
T1 construct: also called Affilin-77404
quantity.measured: Kd

Input: // lookup Kd for SEQ ID NO: 2_Y8Q (designed binder) AMDDFAQQSAWAEIEALPNLTEMQKDQFIWSLMFDPSVSKEVLGEAQKLNDSQAPK
Output: < 0.5 nM
